Experiment: chemical genetic growth profiling, strain panel (AID 1159580);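 further: tested at 20 µM; growth read once vehicle control cultures reached saturation at 30 °C; 1 = growth at the plate median or of vehicle wells; lower values mean less growth of the strain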
Details: S. cerevisiae deletion strains, growth OD, locus YPL256C, strain CLN2, stronger effect = lower value
About 2,000 (36%) of roughly 5,500 compounds were called active. Roughly 18% stayed inconclusive and do not appear here. This is one part of the list.
Listing of entries alongside the reported normalized growth.
observable: normalized growth

* CC(CCC(=O)O)[C@H]1CCC2C3CC[C@@H]4C[C@H](O)CC[C@]4(C)C3CC[C@@]21C (stereo not given in full) | 1.05
* O=C1/C(=C/c2ccc(C(F)(F)F)cc2)COc2ccccc21 | 0.852
* CC(CCC(=O)O)[C@H]1CCC2C3C[C@H](O)[C@@H]4C[C@H](O)CC[C@]4(C)C3CC[C@@]21C (stereo not given in full) | 1.04
* CC1C/C(=N/Nc2ccc(Br)cc2)c2cc(Cl)ccc2S1(=O)=O (stereo not given) | 0.879
* CC(C)CCCC(C)C1CCC2C3CC[C@H]4CCCC[C@]4(C)C3CC[C@]12C (stereo not given in full) | 0.978

###

Listing of entries alongside the reported normalized growth.
Assay: chemical genetic growth profiling, strain panel (AID 1159580)
Conditions: S. cerevisiae deletion strains, growth OD, locus YMR307W, strain GAS1, stronger effect = lower value
The campaign covered roughly 5,500 compounds. About 2,000 (36%) were called active. Another 18% or so got no clear call; they are omitted. Some of the results follow.
observable: normalized growth

* O=C(Nc1ccccc1)Nc1ccc(C(F)(F)F)cc1Br | 0.54
* CN(C)C(=O)Nc1ccc(Cl)c(Cl)c1 | 0.812
* Cc1cc(O)c(C=O)c2c1C(=O)Oc1c(COC(=O)/C=C/C(=O)O)c(O)c(C(=O)O)c(C)c1O2 | 0.72
* O=C(NCc1nc(-c2ccc(C(F)(F)F)cc2)no1)Nc1ccc(F)cc1F | 0.894
* C=C[C@H]1CN2CC[C@H]1C[C@@H]2[C@H](O)c1ccnc2ccccc12 | 1.09
* CC(=O)Nc1ccc(C(F)(F)F)cc1Br | 1.06
* COC(=O)c1c(C)cc(OC(=O)c2c(C)cc(O)c(C=O)c2O)c(C)c1O | 0.789
* C[C@]12N[C@H](Cc3ccccc31)c1ccccc12 | 1
* CN[C@@H]1[C@H](OC2[C@H](O[C@H]3[C@H](O)[C@@H](O)[C@H](N=C(N)N)[C@@H](O)[C@@H]3N=C(N)N)O[C@@H](C)[C@]2(O)C=O)O[C@@H](CO)[C@H](O)[C@H]1O (stereo not given in full) | 0.965
* COC(=O)CCC(=O)O[C@H]1CCC2(C)C(CCC3C2C(=O)[C@@H](O)C2(C)C3CC3OC4(CCC(C)CO4)[C@@H](C)C32)C1 (stereo not given in full) | 0.997
* Cc1cc(C)cc(OCC2CNC(=O)O2)c1 (stereo not given) | 1.03
* COc1cc(C)c(C(=O)Oc2cc(C)c(C(=O)O)c(O)c2C)c(OC)c1C | 0.978
* CCCCS(=N)(=O)CCC(N)C(=O)O (stereo not given) | 1.01
* COc1cc(OC)c(OC)cc1C=O | 1.09
* Nc1cc(-c2ccncc2)c[nH]c1=O | 0.937
* CC(=O)O[C@H]1C[C@@H](OC(C)=O)C(C)(C)C2CC(=O)[C@]3(C)C(CC[C@@]4(C)[C@H](c5ccoc5)OC(=O)[C@H]5O[C@]543)[C@]21C (stereo not given in full) | 1.03
* CC1(C)C(=O)C=C[C@@]2(C)C1CC(=O)[C@@]1(C)C3=CC(=O)O[C@@H](c4ccoc4)[C@]3(C)CCC12 (stereo not given in full) | 0.98
* Nc1ccncc1 | 1.01
* CNC(=O)[C@H]1O[C@@H](n2cnc3c(NCc4ccc(I)cc4)nc(Cl)nc32)[C@H](O)[C@@H]1O | 1
* Cc1cc(O)c(C=O)c2c1C(=O)Oc1c(C)c(O)c3c(c1O2)C(O)OC3=O (stereo not given) | 1.14

###

Test: chemical genetic growth profiling, strain panel (AID 1159580);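 further: tested at 20 µM; growth read once vehicle control cultures reached saturation at 30 °C; 1 = growth at the plate median or of vehicle wells; lower values mean less growth of the strain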
Conditions: S. cerevisiae deletion strains, growth OD, locus YOR270C, strain vph1
Screen size: about 5,500 compounds; about 2,000 (36%) were called active. Roughly 18% stayed inconclusive and do not appear here. Rule as the data show it: active = normalized growth mostly below about 0.91 (no sharp cut-off); inconclusive = no clear call, values can overlap the other calls; inactive = mostly above about 0.92. This is one part of the list.
Outcomes: active, inactive

* CC(=O)O[C@H]1C[C@@H](OC(C)=O)C(C)(C)C2CC(=O)[C@]3(C)C(CC[C@@]4(C)[C@H](c5ccoc5)OC(=O)[C@H]5O[C@]543)[C@]21C (stereo not given in full) | inactive
* CN(C)CCOC(=O)COc1ccc(Cl)cc1 | inactive
* COc1cc(OC)c(OC)cc1C=O | inactive
* C=C1C2CC[C@@]3(C)[C@H](c4ccoc4)OC(=O)C[C@]13O[C@H]1CC(=O)C(C)(C)C(CC(=O)OC)[C@@]21C (stereo not given in full) | inactive
* CCN(CC)CCOC(=O)C(c1ccccc1)c1ccccc1 | inactive
* COC(=O)CCCOc1ccc(Cl)cc1Cl | inactive
* NCC(CC(=O)O)c1ccc(Cl)cc1 (stereo not given) | inactive
* O=c1cc(-c2ccccc2)oc2cccc(O)c12 | active
* C[C@H](CCC(=O)O)[C@H]1CCC2C3C(CC[C@@]21C)[C@@]1(C)CC[C@@H](O)C[C@H]1C[C@H]3O (stereo not given in full) | inactive
* CN(C)C(=O)Nc1ccc(Cl)c(Cl)c1 | inactive

###

Experiment: chemical genetic growth profiling, strain panel (AID 1159580);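 further: tested at 20 µM; growth read once vehicle control cultures reached saturation at 30 °C; 1 = growth at the plate median or of vehicle wells; lower values mean less growth of the strain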
Details: S. cerevisiae deletion strains, growth OD, locus YBR021W, strain FUR4, stronger effect = lower value
The whole screen tested about 5,500 compounds, of which about 2,000 (36%) were called active. Another 18% or so got no clear call; they are omitted. Some of the results follow.
observable: normalized growth

- CC(CN1c2ccccc2Sc2ccccc21)N(C)C (stereo not drawn): 0.938
- Nc1cc(-c2ccncc2)c[nH]c1=O: 0.952
- CCOC(=O)[C@H](CCc1ccccc1)N[C@@H](C)C(=O)N1Cc2ccccc2C[C@H]1C(=O)O: 1.01
- CC(=O)Nc1ccccc1: 1.02
- C=C1[C@H]2CC[C@@]3(C)[C@H](c4ccoc4)OC(=O)C[C@]13O[C@H]1C[C@H](O)C(C)(C)[C@H](CC(=O)OC)[C@]12C: 0.985
- COC(=O)c1c(C)cc(OC(=O)c2c(C)c(Cl)c(O)c(C=O)c2O)c(C)c1O: 1
- Cc1cc(=O)oc2c(O)c(O)ccc12: 0.975
- CCCCCC1C(=O)CCC1CC(=O)O (stereo not drawn): 0.991
- O=c1cc(-c2cc(O)c(O)c(O)c2)oc2cc(O)cc(O)c12: 1.07
- C=C1C2CCC3(C)C(c4ccoc4)OC(=O)CC13OC1CC(OC(C)=O)C(C)(C)C(CC(=O)OC)C12C (stereo not drawn): 1
- C=C1C(C2(C)C=CC(=O)C(C)(C)C2CC(=O)OC)CC[C@@]2(C)[C@H](c3ccoc3)OC(=O)C3OC132 (stereo partly drawn): 1.03
- CN(C)C(=O)Nc1ccc(Cl)c(Cl)c1: 0.904
- C=C1C2=CC(=O)O[C@@H](c3ccoc3)[C@]2(C)CCC1[C@@]1(C)C=CC(=O)C(C)(C)[C@@H]1CC(=O)OC (stereo partly drawn): 0.989
- CC(CN(C)C)CN1c2ccccc2Sc2ccccc21 (stereo not drawn): 0.818
- CCC(=O)Nc1ccc(Cl)c(Cl)c1: 0.952
- CN(C(=O)CN(CCO)CC(=O)N(C)C(C)(C)Cc1ccccc1)C(C)(C)Cc1ccccc1: 0.985
- Cc1nc2sccn2c(=O)c1CCN1CCC(=C(c2ccc(F)cc2)c2ccc(F)cc2)CC1: 0.338
- NNCCc1ccccc1: 0.997
- CC(=O)N=c1sc(S(N)(=O)=O)nn1C: 1.02
- COc1cc([C@@H]2c3cc4c(cc3[C@H](OC(C)=O)[C@H]3COC(=O)[C@@H]23)OCO4)cc(OC)c1OC: 1.01
- CCCCCC1C(=O)CCC1CC(=O)OC (stereo not drawn): 0.921
- CC(CN1c2ccccc2Sc2cccnc21)N(C)C (stereo not drawn): 0.987
- O=c1cc(-c2ccccc2)oc2cc(O)cc(O)c12: 1.01

###

Test: chemical genetic growth profiling, strain panel (AID 1159580);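 further: tested at 20 µM; growth read once vehicle control cultures reached saturation at 30 °C; 1 = growth at the plate median or of vehicle wells; lower values mean less growth of the strain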
Conditions: S. cerevisiae deletion strains, growth OD, locus YOR083W, strain WHI5
Among all 5,500 compounds or so, about 2,000 (36%) were called active. Another 18% or so got no clear call; they are omitted. Rule as the data show it: active = normalized growth mostly below about 0.91 (no sharp cut-off); inconclusive = no clear call, values can overlap the other calls; inactive = mostly above about 0.92. This is one part of the list.
Outcomes: active, inactive

* COc1c2ccoc2nc2c(OC)c(OCC(O)C(C)(C)O)ccc12 (centres undefined) | inactive
* CC(=O)O[C@H]1C[C@@H](OC(C)=O)C(C)(C)C2CC(=O)[C@]3(C)C(CC[C@@]4(C)[C@H](c5ccoc5)OC(=O)[C@H]5O[C@]543)[C@]21C (some centres undefined) | inactive
* COc1cc(C)c(C(=O)Oc2cc(C)c(C(=O)O)c(O)c2C)c(OC)c1C | inactive
* O=[N+]([O-])c1cccc2cn[nH]c12 | inactive
* Nc1cc(C(Cl)=C(Cl)Cl)c(S(N)(=O)=O)cc1S(N)(=O)=O | inactive
* COc1c(Cl)ccc(Cl)c1C(=O)O | inactive
* CC(CN(C)C)CN1c2ccccc2CCc2ccccc21 (centres undefined) | inactive
* C=Cc1c(C)c2[n-]c1=Cc1[n-]c(c(CC)c1C)C=c1[n-]c3c(c1C)C(=O)C(C(=O)[O-])C=3c1[n-]c(c(C)c1CCC(=O)[O-])C=2.[Cu] (centres undefined) | inactive
* CCN(CC)C(C)CN1c2ccccc2Sc2ccccc21 (centres undefined) | active
* N[C@H](Cc1cc(I)c(Oc2ccc(O)c(I)c2)c(I)c1)C(=O)O | inactive
* Cc1nc2ccccn2c(=O)c1CCN1CCC(C(=O)c2ccc(F)cc2)CC1 | inactive
* COc1ccc(C(=O)N2CCCC2=O)cc1 | inactive
* Nc1ccn(C2O[C@H](CO)[C@@H](O)[C@H]2O)c(=O)n1 (some centres undefined) | inactive
* CC(CN1c2ccccc2Sc2ccccc21)N(C)C (centres undefined) | inactive
* CNC(=O)Oc1ccc2c(c1)[C@]1(C)CCN(C)[C@@H]1N2C | inactive
* CN(CCC(N)CC(=O)N[C@H]1C=CC(n2ccc(N)nc2=O)O[C@@H]1C(=O)O)C(=N)N (some centres undefined) | inactive
* C[C@@H]1O[C@@H](O[C@H]2C[C@@H](O)[C@]3(CO)C4C(CC[C@]3(O)C2)[C@@]2(O)CC[C@H](C3=CC(=O)OC3)[C@@]2(C)C[C@H]4O)[C@H](O)[C@H](O)[C@H]1O (some centres undefined) | inactive
* CN[C@@H]1[C@H](OC2[C@H](O[C@H]3[C@H](O)[C@@H](O)[C@H](N=C(N)N)[C@@H](O)[C@@H]3N=C(N)N)O[C@@H](C)[C@]2(O)C=O)O[C@@H](CO)[C@H](O)[C@H]1O (some centres undefined) | inactive
* CNCCCN1c2ccccc2CCc2ccccc21 | inactive
